Values were extracted from paper PMC10247784.

Can you tell me RLU, fluorescence trace for the items I'm about to list?
# targetUnderTest: human TAS2R4 (Homo sapiens, UniProt Q9NYW5)
# Construct: expressed in transfected cells; host or cells: HEK293T-Gα16gust44
# Sequence (Q9NYW5 whole entry): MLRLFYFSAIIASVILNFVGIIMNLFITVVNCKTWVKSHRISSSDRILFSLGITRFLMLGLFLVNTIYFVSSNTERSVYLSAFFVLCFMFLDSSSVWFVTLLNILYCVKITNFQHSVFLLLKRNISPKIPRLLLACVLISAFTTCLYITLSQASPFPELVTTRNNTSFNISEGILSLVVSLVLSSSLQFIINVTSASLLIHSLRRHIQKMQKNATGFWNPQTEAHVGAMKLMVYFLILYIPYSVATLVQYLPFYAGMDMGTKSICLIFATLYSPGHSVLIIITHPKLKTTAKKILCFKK
# testMethodNotes: Calcium imaging assay (FLIPR), HEK293T-Gα16gust44 cells transfected with human TAS2R4; also: test concentration or dose not given here
# Assay type: cell-based
# testParameters: Time (s) 18
Just so you know, I need the unit written after the number.

Input: Please give measured RLU, fluorescence trace of the following entry: C[C@H](CCC(=O)O)[C@H]1CC[C@H]2[C@@H]3[C@@H](O)C[C@@H]4C[C@H](O)CC[C@]4(C)[C@H]3CC[C@]12C [Ursodeoxycholic Acid, ursodeoxycholic acid]
Output: -16.0557 RLU

Input: Please give measured RLU, fluorescence trace of the following entry: C[C@H](CCC(=O)NCCS(=O)(=O)O)[C@H]1CC[C@H]2[C@@H]3CC[C@@H]4C[C@H](O)CC[C@]4(C)[C@H]3CC[C@]12C [Taurolithocholic Acid, taurolithocholic acid]
Output: -13.8081 RLU

Input: Please give measured RLU, fluorescence trace of the following entry: C[C@H](CCC(=O)NCCS(=O)(=O)O)[C@H]1CC[C@H]2[C@@H]3[C@H](O)C[C@@H]4C[C@H](O)CC[C@]4(C)[C@H]3C[C@H](O)[C@]12C [Taurocholic Acid, taurocholic acid]
Output: -48.5281 RLU

Input: Please give measured RLU, fluorescence trace of the following entry: C[C@H](CCC(=O)O)[C@H]1CC[C@H]2[C@@H]3CC[C@@H]4C[C@H](O)CC[C@]4(C)[C@H]3C[C@H](O)[C@]12C [Deoxycholic Acid, deoxycholic acid]
Output: -24.2064 RLU

Input: Please give measured RLU, fluorescence trace of the following entry: C[C@H](CCC(=O)NCC(=O)O)[C@H]1CC[C@H]2[C@@H]3[C@H](O)C[C@@H]4C[C@H](O)CC[C@]4(C)[C@H]3C[C@H](O)[C@]12C [Glycocholic Acid, glycocholic acid]
Output: -27.0676 RLU

Input: Please give measured RLU, fluorescence trace of the following entry: C[C@H](CCC(=O)O)[C@H]1CC[C@H]2[C@@H]3[C@H](O)C[C@@H]4C[C@H](O)CC[C@]4(C)[C@H]3C[C@H](O)[C@]12C [Cholic Acid, cholic acid]
Output: 0.9534 RLU
